This collection of values is drawn from ChEMBL document CHEMBL5661969.

# run.description: Elimination half life in BALB/c mouse at 10 mg/kg, ip by HPLC analysis
# Type: ADME, organism-based
# condition.context: in vivo, read-out: beta t1/2

structure.smiles.string: O=c1cc(N2CCOCC2)oc2c(-c3cccc4c3sc3ccccc34)cccc12
half-life / min: 53

###

# run.description: Ratio of drug level in tumor to plasma of human SW620 cell xenografted athymic nude CD1 mouse at 10 mg/kg, ip measured after 30 mins by HPLC analysis
# Format: ADME, organism-based
# condition.context: tumor and plasma
quantity: Kp at 0.5 h

structure.smiles.string: O=c1cc(N2CCOCC2)oc2c(-c3cccc4c3sc3ccccc34)cccc12
quantity: Kp at 0.5 h
observed: 1.4

###

# run.description: Clearance in BALB/c mouse at 5 mg/kg, iv by HPLC analysis
# Format: ADME, organism-based
# condition.context: in vivo

structure.smiles.string: O=c1cc(N2CCOCC2)oc2c(-c3cccc4c3sc3ccccc34)cccc12
clearance [mL/min/kg]: 65

###

# run.description: Tmax in BALB/c mouse at 5 mg/kg, iv by HPLC analysis
# Type: ADME, organism-based
# condition.context: in vivo

structure.smiles.string: O=c1cc(N2CCOCC2)oc2c(-c3cccc4c3sc3ccccc34)cccc12
Tmax / min: 5

###

# run.description: Elimination half life in BALB/c mouse at 10 mg/kg, po by HPLC analysis
# Format: ADME, organism-based
# condition.context: in vivo, read-out: beta t1/2
quantity: half-life

structure.smiles.string: O=c1cc(N2CCOCC2)oc2c(-c3cccc4c3sc3ccccc34)cccc12
quantity: half-life
observed: 2.12 h

###

# run.description: Ratio of drug level in brain to plasma of human SW620 cell xenografted athymic nude CD1 mouse at 10 mg/kg, ip measured after 90 mins by HPLC analysis
# Assay type: ADME, organism-based
# condition.context: brain and plasma, read-out: BPR
quantity: Kp at 1.5 h

structure.smiles.string: O=c1cc(N2CCOCC2)oc2c(-c3cccc4c3sc3ccccc34)cccc12
observed: 3

###

# run.description: Growth inhibition of human LoVo cells at 1 umol/L measured after 5 days by crystal violet staining based assay relative to control
# Type: toxicity, cell-based
# condition.context: dose 1 µmol/L, time 5 day, read-out: GI
quantity: inhibition at 120 h, 1 µM (%)

structure.smiles.string: O=c1cc(N2CCOCC2)oc2c(-c3cccc4c3sc3ccccc34)cccc12
observed: 78

###

# run.description: Ratio of drug level in tumor to plasma of human SW620 cell xenografted athymic nude CD1 mouse at 10 mg/kg, ip measured after 60 mins by HPLC analysis
# Type: ADME, organism-based
# condition.context: tumor and plasma

structure.smiles.string: O=c1cc(N2CCOCC2)oc2c(-c3cccc4c3sc3ccccc34)cccc12
Kp at 1 h: 0.44

###

# run.description: Clearance in BALB/c mouse at 10 mg/kg, ip by HPLC analysis
# Type: ADME, organism-based
# condition.context: in vivo

structure.smiles.string: O=c1cc(N2CCOCC2)oc2c(-c3cccc4c3sc3ccccc34)cccc12
quantity.unit: mL/min/kg
CL/F: 66

###

# run.description: Ratio of drug level in kidney to plasma of human SW620 cell xenografted athymic nude CD1 mouse at 10 mg/kg, ip measured after 60 mins by HPLC analysis
# Format: ADME, organism-based

structure.smiles.string: O=c1cc(N2CCOCC2)oc2c(-c3cccc4c3sc3ccccc34)cccc12
Kp at 1 h: 3.6
